IC50 reference
targetOrSystem: CYP3A4 (Homo sapiens)
Sequence (P08684 whole entry): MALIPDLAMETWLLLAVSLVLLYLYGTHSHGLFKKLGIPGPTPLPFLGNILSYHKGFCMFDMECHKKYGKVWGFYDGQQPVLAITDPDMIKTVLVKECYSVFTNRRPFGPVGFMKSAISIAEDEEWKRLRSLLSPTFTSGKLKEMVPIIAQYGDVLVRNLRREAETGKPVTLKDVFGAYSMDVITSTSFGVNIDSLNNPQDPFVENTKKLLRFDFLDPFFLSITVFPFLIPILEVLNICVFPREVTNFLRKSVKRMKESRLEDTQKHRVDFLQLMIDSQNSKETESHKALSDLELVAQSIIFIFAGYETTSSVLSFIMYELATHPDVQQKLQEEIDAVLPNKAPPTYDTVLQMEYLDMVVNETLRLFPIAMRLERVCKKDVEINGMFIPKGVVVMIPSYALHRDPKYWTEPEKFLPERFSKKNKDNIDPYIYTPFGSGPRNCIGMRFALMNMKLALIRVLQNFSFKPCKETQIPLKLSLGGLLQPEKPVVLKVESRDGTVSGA
testProtocol: Cytochrome P450 inhibition
Assay type: biochemical
experimentalParameters: read-out: IC50 CYP3A4
observedProperty: IC50

> print(dat)
        molecule     value
1           NCCO  > 100 µM
2  NCCOP(=O)(O)O  > 100 µM

* * *

pIC50 reference
targetOrSystem: UniProt P20813
Sequence (P20813 whole entry): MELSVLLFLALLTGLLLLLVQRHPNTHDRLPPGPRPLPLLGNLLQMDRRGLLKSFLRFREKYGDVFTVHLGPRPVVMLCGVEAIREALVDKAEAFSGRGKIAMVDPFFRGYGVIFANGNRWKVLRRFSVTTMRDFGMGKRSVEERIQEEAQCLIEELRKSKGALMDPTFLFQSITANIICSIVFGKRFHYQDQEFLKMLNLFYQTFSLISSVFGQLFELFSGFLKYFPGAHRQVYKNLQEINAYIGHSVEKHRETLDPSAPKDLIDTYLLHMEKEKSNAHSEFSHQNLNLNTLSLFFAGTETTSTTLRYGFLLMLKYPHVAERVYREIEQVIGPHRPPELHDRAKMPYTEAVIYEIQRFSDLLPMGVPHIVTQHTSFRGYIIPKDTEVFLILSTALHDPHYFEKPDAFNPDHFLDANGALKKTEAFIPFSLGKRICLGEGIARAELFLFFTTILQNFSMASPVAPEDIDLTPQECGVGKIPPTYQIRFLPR
testProtocol: Cytochrome P450 inhibition
Type: biochemical
experimentalParameters: read-out: IC50 CYP2B6
pIC50: −log10 of the molar value.
observedProperty: pIC50

> print(dat)
                                   compound   value
1              NCCO [Etn, monoethanolamine]  < 4.00
2  NCCOP(=O)(O)O [PhosE, phosphoethanolamine]  < 4.00

* * *

targetOrSystem: CYP2C19 (Homo sapiens, UniProt P33261)
Sequence (P33261 whole entry): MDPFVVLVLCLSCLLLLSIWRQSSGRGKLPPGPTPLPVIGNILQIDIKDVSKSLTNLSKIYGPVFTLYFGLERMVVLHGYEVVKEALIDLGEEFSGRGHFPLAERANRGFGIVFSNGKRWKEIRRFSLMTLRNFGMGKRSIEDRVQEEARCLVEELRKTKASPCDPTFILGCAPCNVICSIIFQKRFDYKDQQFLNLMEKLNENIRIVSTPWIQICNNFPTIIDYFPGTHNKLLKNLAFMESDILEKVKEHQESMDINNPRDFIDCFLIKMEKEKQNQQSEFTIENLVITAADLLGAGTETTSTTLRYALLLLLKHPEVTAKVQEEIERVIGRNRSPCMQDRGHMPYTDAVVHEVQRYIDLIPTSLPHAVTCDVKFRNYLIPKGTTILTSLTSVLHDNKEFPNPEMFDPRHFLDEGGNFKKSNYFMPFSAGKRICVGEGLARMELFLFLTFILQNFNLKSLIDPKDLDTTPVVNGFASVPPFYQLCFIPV
testProtocol: Cytochrome P450 inhibition
Assay type: biochemical
experimentalParameters: read-out: IC50 CYP2C19
pIC50: −log10 of the molar value.
pIC50 reference
observedProperty: pIC50

> print(dat)
                                   compound   value
1  NCCOP(=O)(O)O [PhosE, phosphoethanolamine]  < 4.00
2              NCCO [Etn, monoethanolamine]  < 4.00

* * *

targetOrSystem: CYP2C8 (Homo sapiens, UniProt P10632)
Sequence (P10632 whole entry): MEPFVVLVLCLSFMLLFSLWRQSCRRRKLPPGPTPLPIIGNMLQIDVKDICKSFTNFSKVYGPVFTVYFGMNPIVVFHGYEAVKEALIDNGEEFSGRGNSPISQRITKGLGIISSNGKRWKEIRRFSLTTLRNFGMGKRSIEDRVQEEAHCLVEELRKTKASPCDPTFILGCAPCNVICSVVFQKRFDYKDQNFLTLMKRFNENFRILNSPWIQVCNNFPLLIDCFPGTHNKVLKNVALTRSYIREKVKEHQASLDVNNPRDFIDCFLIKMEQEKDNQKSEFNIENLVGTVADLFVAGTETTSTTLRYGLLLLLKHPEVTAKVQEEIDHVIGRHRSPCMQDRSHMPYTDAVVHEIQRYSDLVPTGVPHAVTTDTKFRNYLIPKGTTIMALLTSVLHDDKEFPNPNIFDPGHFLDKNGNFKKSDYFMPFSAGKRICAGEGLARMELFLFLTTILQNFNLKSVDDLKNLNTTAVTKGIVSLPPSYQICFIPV
testProtocol: Cytochrome P450 inhibition
Format: biochemical
experimentalParameters: read-out: IC50 CYP2C8
IC50 reference
observedProperty: IC50

> print(dat)
        molecule                         targetorsystem     value
1           NCCO  CYP2C8 (Homo sapiens, UniProt P10632)  > 100 µM
2  NCCOP(=O)(O)O  CYP2C8 (Homo sapiens, UniProt P10632)  > 100 µM

* * *

targetOrSystem: UniProtKB P05177
Sequence (P05177 1-516): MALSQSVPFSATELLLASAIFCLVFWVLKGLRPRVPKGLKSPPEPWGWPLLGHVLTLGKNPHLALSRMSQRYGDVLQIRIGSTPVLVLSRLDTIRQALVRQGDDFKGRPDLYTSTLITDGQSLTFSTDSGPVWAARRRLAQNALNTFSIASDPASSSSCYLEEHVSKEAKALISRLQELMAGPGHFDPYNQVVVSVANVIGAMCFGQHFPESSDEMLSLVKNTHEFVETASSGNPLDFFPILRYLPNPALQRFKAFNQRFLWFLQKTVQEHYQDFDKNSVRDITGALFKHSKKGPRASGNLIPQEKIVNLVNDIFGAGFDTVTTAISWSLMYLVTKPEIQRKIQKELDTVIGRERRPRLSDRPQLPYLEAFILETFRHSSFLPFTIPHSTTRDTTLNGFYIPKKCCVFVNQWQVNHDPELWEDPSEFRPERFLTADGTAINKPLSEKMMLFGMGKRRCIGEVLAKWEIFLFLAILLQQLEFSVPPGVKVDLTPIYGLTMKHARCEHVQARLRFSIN
testProtocol: Cytochrome P450 inhibition
Assay type: biochemical
observedProperty: IC50

> print(dat)
                                   compound     value
1  NCCOP(=O)(O)O [PhosE, phosphoethanolamine]  > 100 µM

* * *

pIC50 reference
targetOrSystem: CYP2C9 (Homo sapiens, UniProt P11712)
Sequence (P11712 whole entry): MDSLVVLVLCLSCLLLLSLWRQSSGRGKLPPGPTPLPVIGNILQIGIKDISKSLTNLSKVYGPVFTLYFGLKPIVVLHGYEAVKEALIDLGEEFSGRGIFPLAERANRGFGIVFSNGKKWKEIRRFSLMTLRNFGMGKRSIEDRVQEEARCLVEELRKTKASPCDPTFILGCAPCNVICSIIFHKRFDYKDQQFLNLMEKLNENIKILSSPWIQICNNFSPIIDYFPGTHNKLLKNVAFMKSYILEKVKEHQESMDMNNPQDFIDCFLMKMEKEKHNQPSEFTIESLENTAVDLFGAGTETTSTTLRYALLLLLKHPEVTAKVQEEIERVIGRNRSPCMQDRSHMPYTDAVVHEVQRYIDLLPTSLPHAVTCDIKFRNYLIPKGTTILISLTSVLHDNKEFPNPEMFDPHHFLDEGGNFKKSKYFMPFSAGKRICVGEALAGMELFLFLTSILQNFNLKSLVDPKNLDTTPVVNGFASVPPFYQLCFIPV
testProtocol: Cytochrome P450 inhibition
Type: biochemical
experimentalParameters: read-out: IC50 CYP2C9
pIC50: −log10 of the molar value.
observedProperty: pIC50

> print(dat)
        molecule   value
1  NCCOP(=O)(O)O  < 4.00
2           NCCO  < 4.00
